- systemTested: Nrf2-Keap1 complex (Homo sapiens, UniProt Q14145)
- Sequence (Q14145 whole entry, one chain of several): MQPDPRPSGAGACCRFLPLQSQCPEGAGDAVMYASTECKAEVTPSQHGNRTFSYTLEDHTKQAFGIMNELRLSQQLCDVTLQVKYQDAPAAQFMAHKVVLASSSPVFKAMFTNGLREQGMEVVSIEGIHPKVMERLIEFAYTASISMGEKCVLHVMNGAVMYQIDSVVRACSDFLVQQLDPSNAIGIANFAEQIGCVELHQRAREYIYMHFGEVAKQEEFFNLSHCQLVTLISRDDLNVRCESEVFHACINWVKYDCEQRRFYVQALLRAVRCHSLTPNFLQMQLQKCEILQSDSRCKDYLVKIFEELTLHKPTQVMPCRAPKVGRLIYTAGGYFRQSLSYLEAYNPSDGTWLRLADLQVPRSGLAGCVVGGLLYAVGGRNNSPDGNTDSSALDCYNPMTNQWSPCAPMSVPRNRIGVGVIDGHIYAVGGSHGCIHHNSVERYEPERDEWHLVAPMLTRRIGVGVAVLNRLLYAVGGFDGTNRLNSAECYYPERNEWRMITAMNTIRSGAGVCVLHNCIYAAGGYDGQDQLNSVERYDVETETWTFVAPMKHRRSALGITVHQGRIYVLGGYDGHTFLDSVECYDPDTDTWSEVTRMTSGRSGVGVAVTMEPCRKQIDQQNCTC
- assayComment: cell-based
- Assay type: cell-based
measurementKind: Activation 100 nL (%)

| molecule | endpointResult |
| --- | --- |
| OC[C@H]1O[C@H]([S-])[C@H](O)[C@@H](O)[C@@H]1O.[Au+] [AUROTHIOGLUCOSE, reference compound] | 27 |
| COc1ccc2ccc(=O)oc2c1CC=C(C)C | 58 |
| CC1=C(/C=C/C(C)=C/C=C/C(C)=C\C(=O)O)C(C)(C)CCC1 [ISOTRETINON, reference compound] | 34 |
| CC(=O)C(=Cc1ccccc1)CC(=O)O | 78 |
| O=c1ccn([C@@H]2O[C@H](COP(=O)([O-])OP(=O)([O-])OP(=O)([O-])O)[C@@H](O)[C@H]2O)c(=O)[nH]1.[Na+].[Na+].[Na+] [URIDINETRIPHOSPHATETRISODIUM] | 28 |

---

Recorded Activation 100 nL values for a group of molecules are listed next.
- systemTested: Nrf2-Keap1 complex (Homo sapiens, UniProt Q14145)
- assayComment: cell-based
- Format: cell-based

| molecule | systemTested | measurementUnit | Activation 100 nL |
| --- | --- | --- | --- |
| CC(=O)O[C@H]1CCC2(C)C3=C(CCC2C1(C)C)[C@@]1(C)CC[C@@H](C(C)CCC=C(C)C)[C@]1(C)CC3 (some centres unmarked) [EUPHOLACETATE] | Nrf2-Keap1 complex (Homo sapiens, UniProt Q14145) | % | 89 |
| CC1(C)[N+]([O-])=[N+]([O-])C1(C)Br (centres unmarked) | Nrf2-Keap1 complex (Homo sapiens, UniProt Q14145) | % | 55 |
| [H]/N=C(\N/C(=N/[H])NCCCCCCNC(=N)NC(=N)Nc1ccc(Cl)cc1)Nc1ccc(Cl)cc1 [CHLORHEXIDINE, reference compound] | Nrf2-Keap1 complex (Homo sapiens, UniProt Q14145) | % | 147 |
| O=C1C[C@@H](c2ccc(O)c(O)c2)Oc2cc(O)cc(O)c21 [ERIODYCTOL] | Nrf2-Keap1 complex (Homo sapiens, UniProt Q14145) | % | 76 |
| CC(=O)O[C@@H]1CC2C(C)(C)[C@H](O)CC[C@]2(C)C2CC[C@@]3(C)[C@H](c4ccoc4)OC(=O)C4OC43[C@@]21C (stereo partly drawn) [alpha-DIHYDROGEDUNOL] | Nrf2-Keap1 complex (Homo sapiens, UniProt Q14145) | % | 41 |
| CCCCCCCCCCCCCCCc1ccco1 [AVOCADANOFURAN] | Nrf2-Keap1 complex (Homo sapiens, UniProt Q14145) | % | 59 |
| COc1ccc2c(c1)OCC(Cc1ccc(OC(C)=O)c(OC)c1)C2=O (centres unmarked) | Nrf2-Keap1 complex (Homo sapiens, UniProt Q14145) | % | 221 |
| COc1cc(OC)c2c(=O)c(O)c(-c3ccc(OC)c(OC)c3)oc2c1 | Nrf2-Keap1 complex (Homo sapiens, UniProt Q14145) | % | 29 |
| CC1(C)C(=O)C=C[C@]2(C)[C@H]3CC[C@@]4(C)[C@H](c5ccoc5)OC(=O)[C@H]5O[C@]54[C@]3(C)C(=O)C[C@@H]12 [DEACETOXY-7-OXOGEDUNIN] | Nrf2-Keap1 complex (Homo sapiens, UniProt Q14145) | % | 45 |
| CC(=O)O[C@H]1CC[C@]2(C)[C@H]3CC[C@@]4(C)[C@H](c5ccoc5)OC(=O)[C@H]5O[C@]54[C@]3(C)[C@H](OC(C)=O)C[C@H]2C1(C)C [3beta-ACETOXYDEOXODIHYDROGEDUNIN] | Nrf2-Keap1 complex (Homo sapiens, UniProt Q14145) | % | 37 |
| O=C(CC[N+](=O)[O-])OC[C@H]1O[C@@H](O)[C@H](OC(=O)CC[N+](=O)[O-])[C@@H](OC(=O)CC[N+](=O)[O-])[C@@H]1OC(=O)CC[N+](=O)[O-] [[…]] | Nrf2-Keap1 complex (Homo sapiens, UniProt Q14145) | % | 75 |
| C=C[C@@](C)(O)CCC1C(=C)CCC2[C@@](C)(CO)CCC[C@]12C (stereo partly drawn) [EPI(13)TORULOSOL] | Nrf2-Keap1 complex (Homo sapiens, UniProt Q14145) | % | 27 |
| CC(=O)O[C@@H]1CC2C(C)(C)[C@H](O)C=C[C@]2(C)C2CC[C@]3(C)C(=CC(=O)O[C@H]3c3ccoc3)[C@@]21C (stereo partly drawn) [3-alpha-HYDROXYDEOXYGEDININ] | Nrf2-Keap1 complex (Homo sapiens, UniProt Q14145) | % | 55 |
| COc1cc(O)c2c(=O)cc(C)oc2c1CC=C(C)C [HETEROPEUCENIN, METHYLETHER] | Nrf2-Keap1 complex (Homo sapiens, UniProt Q14145) | % | 27 |

---

- systemTested: Nrf2-Keap1 complex (Homo sapiens, UniProt Q14145)
- assayComment: cell-based
- Assay type: cell-based
measurementKind: Activation 200 nL (%)

| substance | endpointResult |
| --- | --- |
| 1(2)alpha-EPDXYDEOXYDIHYDROGEDUNIN | 25 |
| AMSACRINEHYDROCHLORIDE [reference compound] | 40 |
| AVOCADYNOFURAN | 29 |
| METHYL7-DESHYDROXYPYROGALLIN-4-CARBOXYLATE | 147 |

---

- systemTested: Nrf2-Keap1 complex (Homo sapiens)
- assayComment: cell-based
- Assay type: cell-based
- conditionLabel: 3 h, read-out: Activation 100 nL
Recorded activation at 16 µM values for a group of molecules are listed next.

| molecule | activation at 16 µM |
| --- | --- |
| C[C@@](Cc1ccc(O)c(O)c1)(NN)C(=O)O [CARBIDOPA, reference compound] | 217% |
| Nc1ncnc2c1ncn2C1O[C@H](COP(=O)(O)O)[C@@H](O)[C@H]1O (stereo partly shown) [ADENOSINEPHOSPHATE, reference compound] | 27% |
| O=c1c(-c2ccc(O)cc2)coc2cc(O)cc(O)c12 | 106% |
| O=c1c(O)cccc2cc(O)c(O)c(O)c12 | 156% |

---

- systemTested: Nrf2-Keap1 complex (Homo sapiens)
- assayComment: cell-based
- Format: cell-based
- conditionLabel: Table 1A; 200 nL compound; screen run at 16 and 32 μM, 3 hr
Recorded 200 nL (luminescence) values for a group of compounds are listed next.
measurementKind: 200 nL (luminescence)

| compound | measurementKind | endpointResult |
| --- | --- | --- |
| CC1=C(CC(=O)O)c2cc(F)ccc2/C1=C\c1ccc([S+](C)[O-])cc1 (stereo not shown) [reference compound] | 200 nL (luminescence) | 2710 |
| COc1ccc2cc1Oc1ccc(cc1)C[C@H]1c3c(cc4c(c3Oc3cc5c(cc3OC)CCN(C)[C@@H]5C2)OCO4)CCN1C [CEPHARANTHINE, reference compound] | 200 nL (luminescence) | 584 |
| Nc1ncnc2c1ncn2C1O[C@H](COP(=O)(O)O)[C@@H](O)[C@H]1O (stereo partly shown) [ADENOSINEPHOSPHATE, reference compound] | 200 nL (luminescence) | 556 |
| COc1ccc2cc1Oc1ccc(cc1)C[C@H]1c3cc(c(OC)cc3CCN1C)Oc1c(OC)c(OC)cc3c1[C@H](C2)N(C)CC3 | 200 nL (luminescence) | 596 |
| C=C(NC(=O)C(=C)NC(=O)c1csc(C2=N[C@@H]3c4csc(n4)[C@H]4NC(=O)c5csc(n5)[C@H]([C@](C)(O)[C@@H](C)O)NC(=O)[C@H]5CSC(=N5)/C(=C/C)NC(=O)[C@H]([C@@H](C)O)NC(=O)c5csc(n5)[C@]3(CC2)NC(=O)[C@H](C)NC(=O)C(=C)NC(=O)[C@H](C)NC(=O)[C@H]([C@@H](C)CC)N[C@@H]2C=Cc3c([C@H](C)O)cc(nc3[C@H]2O)C(=O)O[C@@H]4C)n1)C(N)=O [THIOSTREPTON, reference compound] | 200 nL (luminescence) | 1504 |
| CNc1ccccc1C(=O)N1CCc2c([nH]c3ccccc23)C1=O | 200 nL (luminescence) | 532 |
| CCC(C)C(=O)c1c(O)c(C)c2oc3c(C)c(O)c(C(=O)C(C)CC)c(O)c3c2c1O (stereo not shown) | 200 nL (luminescence) | 1276 |

---

Recorded 100 nL (luminescence) values for a group of compounds are listed next.
- systemTested: Nrf2-Keap1 complex (Homo sapiens, UniProt Q14145)
- assayComment: cell-based
- Type: cell-based
- conditionLabel: Table 1A; 100 nL compound; screen run at 16 and 32 μM, 3 hr
measurementKind: 100 nL (luminescence)

| compound | measurementKind | endpointResult |
| --- | --- | --- |
| COc1ccc2c(c1)[C@@]1(C)CCC(=O)C[C@H]1CC2 | 100 nL (luminescence) | 768 |
| CC(=O)NCCc1c[nH]c2ccc(O)cc12 | 100 nL (luminescence) | 900 |
| COC(=O)Nc1nc2cc(C(=O)c3ccccc3)ccc2[nH]1 [MEBENDAZOLE, reference compound] | 100 nL (luminescence) | 1872 |
| CCCOc1ccc2nc(NC(=O)OC)[nH]c2c1 [OXIBENDAZOLE, reference compound] | 100 nL (luminescence) | 1164 |
| CC1=C(CC(=O)O)c2cc(F)ccc2/C1=C\c1ccc([S+](C)[O-])cc1 (centres unmarked) [reference compound] | 100 nL (luminescence) | 2692 |
